# System: Pseudomonas aeruginosa ATCC 9027
# assay-comment: ≥ marks a high value that may be exact or a test limit, other limits are often not marked, values filed in µg/mL are converted to µM
Examples of compounds with documented MIC follow.
observable: MIC (µM)

>>> recorded_result("NC(=O)[C@H](Cc1c[nH]c2ccccc12)NC(=O)[C@H](CCCN=C(N)N)NC(=O)[C@H](CCCN=C(N)N)NC(=O)[C@H](Cc1c[nH]c2ccccc12)NC(=O)[C@H](Cc1c[nH]c2ccccc12)NC(=O)[C@H](Cc1c[nH]c2ccccc12)NC(=O)[C@H](CCCN=C(N)N)NC(=O)[C@H](CCCN=C(N)N)NC(=O)[C@@H](N)Cc1c[nH]c2ccccc12")
8
>>> recorded_result("CC[C@H](C)[C@H](NC(=O)[C@H](CCCN=C(N)N)NC(=O)[C@H](CCC(N)=O)NC(=O)[C@@H](NC(=O)[C@@H](NC(=O)[C@H](CCCN=C(N)N)NC(=O)[C@H](CCCCN)NC(C)=O)[C@@H](C)CC)C(C)C)C(=O)N[C@@H](CCCCN)C(=O)N[C@@H](CC(=O)O)C(=O)N[C@@H](Cc1ccccc1)C(=O)N[C@@H](CC(C)C)C(=O)N[C@@H](CCCN=C(N)N)C(N)=O")
40.7

###

# Test system: Escherichia coli KCTC 1682
observable: MIC

>>> recorded_result("CC[C@H](C)[C@H](N)C(=O)N[C@@H](CC(C)C)C(=O)N[C@@H](CCCCN)C(=O)N[C@@H](Cc1c[nH]c2ccccc12)C(=O)N[C@@H](CCCCN)C(=O)N[C@@H](Cc1c[nH]c2ccccc12)C(=O)N1CCC[C@H]1C(=O)N[C@@H](Cc1c[nH]c2ccccc12)C(=O)N[C@@H](Cc1c[nH]c2ccccc12)C(=O)N[C@@H](CCCCN)C(=O)N[C@@H](Cc1c[nH]c2ccccc12)C(=O)N[C@@H](CCCN=C(N)N)C(=O)N[C@@H](CCCN=C(N)N)C(N)=O")
"5.08 µM"

###

# System: Pseudomonas aeruginosa ATCC 9027
# assay-comment: ≥ marks a high value that may be exact or a test limit, other limits are often not marked, values filed in µg/mL are converted to µM
Examples of compounds with documented MIC follow.
observable: MIC (µM)

>>> recorded_result("CC[C@H](C)[C@H](NC(=O)[C@H](CO)NC(=O)[C@H](CCCCN)NC(=O)[C@@H](NC(=O)CNC(=O)[C@H](CCCCN)NC(=O)[C@H](Cc1c[nH]c2ccccc12)NC(=O)[C@H](CC(C)C)NC(=O)[C@H](CCCCN)NC(=O)CNC(=O)[C@H](CC(C)C)NC(=O)[C@@H](NC(=O)[C@@H](N)Cc1ccccc1)[C@@H](C)CC)C(C)C)C(=O)N[C@@H](Cc1ccccc1)C(N)=O")
30.6
>>> recorded_result("CC(C)C[C@H](NC(=O)[C@H](C)NC(=O)[C@H](CC(C)C)NC(=O)[C@H](CCCCN)NC(=O)[C@H](C)NC(=O)[C@H](CC(C)C)NC(=O)[C@H](CCCCN)NC(=O)[C@H](CCCCN)NC(=O)[C@H](C)NC(=O)[C@H](CC(C)C)NC(=O)[C@H](CCCCN)NC(=O)[C@H](C)NC(=O)[C@H](CC(C)C)NC(=O)[C@H](CCCCN)NC(=O)[C@H](CCCCN)NC(=O)[C@H](C)NC(=O)[C@@H](N)C(C)C)C(N)=O")
8.3

###

So I've got MIC readings for Acinetobacter baumannii ATCC 19606, take a look.
observable: MIC (µM)

>>> recorded_result("C[C@@H](O)[C@H](NC(=O)[C@H](CCCCN)NC(=O)[C@H](Cc1c[nH]c2ccccc12)NC(=O)[C@H](CCCN=C(N)N)NC(=O)[C@H](CCCCN)NC(=O)[C@H](Cc1ccccc1)NC(=O)[C@H](Cc1ccccc1)NC(=O)CN)C(=O)N[C@@H](Cc1ccccc1)C(=O)N[C@@H](Cc1ccccc1)C(N)=O [GFFKRWKTFF]")
64
>>> recorded_result("NC(=O)[C@H](Cc1c[nH]c2ccccc12)NC(=O)[C@H](CCCN=C(N)N)NC(=O)[C@H](Cc1c[nH]c2ccccc12)NC(=O)[C@H](Cc1c[nH]c2ccccc12)NC(=O)[C@H](Cc1c[nH]c2ccccc12)NC(=O)[C@H](CCCN=C(N)N)NC(=O)[C@@H](N)Cc1c[nH]c2ccccc12 [WRWWWRW]")
32
>>> recorded_result("CC[C@H](C)[C@@H]1NC(=O)CNC(=O)[C@H](CCCN=C(N)N)NC(=O)[C@H](Cc2ccc(O)cc2)NC(=O)[C@H](C)NC(=O)[C@H](C(C)C)NC(=O)[C@H](CCCN=C(N)N)NC(=O)[C@H](Cc2ccccc2)NC(=O)[C@@H](NC(=O)[C@H](Cc2c[nH]c3ccccc23)NC(=O)[C@@H](N)CCCCN)CSSC[C@@H](C(=O)N[C@@H](CCCN=C(N)N)C(=O)O)NC(=O)[C@H](CCCN=C(N)N)NC(=O)[C@H](CCCN=C(N)N)NC(=O)[C@H](Cc2ccc(O)cc2)NC(=O)[C@H](C)NC1=O [KWCFRVAYRGIAYRRCR]")
0.113

###

# System: Acinetobacter baumannii
Examples of molecules with documented MIC follow.
observable: MIC (µM)

>>> recorded_result("CC(C)C[C@H](NC(=O)[C@H](CCCCN)NC(=O)[C@H](Cc1c[nH]c2ccccc12)NC(=O)[C@H](CCCCN)NC(=O)[C@H](CC(C)C)NC(=O)[C@H](CCCCN)NC(=O)[C@H](Cc1c[nH]c2ccccc12)NC(=O)[C@H](CCCCN)NC(=O)[C@H](CC(C)C)NC(=O)[C@H](CCCCN)NC(=O)[C@@H](N)Cc1c[nH]c2ccccc12)C(=O)N[C@@H](CCCCN)C(N)=O [WKLKWKLKWKLK]")
2.83
>>> recorded_result("CC[C@H](C)[C@H](NC(=O)CNC(=O)[C@H](CC(C)C)NC(=O)[C@H](CCCN=C(N)N)NC(=O)[C@H](CCCCN)NC(=O)[C@H](Cc1ccccc1)NC(=O)[C@@H](NC(=O)[C@H](CCCCN)NC(=O)[C@H](CCCCN)NC(=O)[C@H](C)N)C(C)C)C(=O)NCC(=O)N[C@@H](C)C(=O)N[C@H](C(=O)N[C@@H](CC(C)C)C(=O)N[C@@H](CCCCN)C(=O)N[C@H](C(=O)N[C@@H](CC(C)C)C(=O)N[C@H](C(=O)N[C@H](C(=O)NCC(=O)O)[C@@H](C)O)[C@@H](C)O)C(C)C)C(C)C [AKKVFKRLGIGAVLKVLTTG]")
6.25
>>> recorded_result("CC(C)C[C@H](NC(=O)[C@H](CCCN=C(N)N)NC(=O)[C@H](Cc1c[nH]c2ccccc12)NC(=O)[C@H](CCCN=C(N)N)NC(=O)[C@H](CC(C)C)NC(=O)[C@H](CCCN=C(N)N)NC(=O)[C@H](Cc1c[nH]c2ccccc12)NC(=O)[C@H](CCCN=C(N)N)NC(=O)[C@H](CC(C)C)NC(=O)[C@H](CCCN=C(N)N)NC(=O)[C@@H](N)Cc1c[nH]c2ccccc12)C(=O)N[C@@H](CCCN=C(N)N)C(N)=O [WRLRWRLRWRLR]")
2.83

###

So I've got MIC readings for Escherichia coli, take a look.
observable: MIC (µM)

>>> recorded_result("CC[C@H](C)[C@H](NC(=O)[C@H](CCCCN)NC(=O)[C@H](Cc1ccccc1)NC(=O)[C@@H](NC(=O)[C@H](C)NC(=O)[C@@H]1CCCN1)C(C)C)C(=O)N[C@@H](C)C(=O)N[C@@H](CO)C(=O)N[C@@H](CCCCN)C(=O)N[C@H](C(=O)N[C@H](C(=O)N1CCC[C@H]1C(=O)N[C@@H](CO)C(=O)N[C@H](C(=O)N[C@@H](Cc1ccc(O)cc1)C(=O)N[C@@H](CS)C(=O)N[C@@H](CCCCN)C(=O)N[C@H](C(=O)N[C@@H](CO)C(=O)N[C@@H](CCCN=C(N)N)C(=O)O)C(C)C)C(C)C)C(C)C)C(C)C")
58.8
>>> recorded_result("CC[C@H](C)[C@H](NC(=O)[C@H](CC(C)C)NC(=O)[C@H](C)NC(=O)[C@@H]1CCCN1C(=O)[C@H](CC(C)C)NC(=O)CN)C(=O)N[C@@H](CC(C)C)C(=O)N[C@@H](Cc1c[nH]c2ccccc12)C(=O)N[C@H](C(=O)N[C@@H](CCCCN)C(=O)N[C@@H](CCCN=C(N)N)C(=O)N[C@@H](CCCCN)C(=O)N[C@@H](CCCN=C(N)N)C(=O)N[C@@H](CCC(N)=O)C(=O)N[C@@H](CCC(N)=O)C(N)=O)[C@@H](C)CC")
44.9
>>> recorded_result("CC[C@H](C)[C@H](NC(=O)[C@H](CC(N)=O)NC(=O)[C@H](CC(=O)O)NC(=O)[C@H](Cc1ccc(O)cc1)NC(=O)[C@@H](NC(=O)[C@H](CCCCN)NC(=O)[C@H](Cc1cnc[nH]1)NC(=O)[C@H](CC(C)C)NC(=O)[C@H](CC(C)C)NC(=O)[C@H](Cc1ccccc1)NC(=O)[C@H](CC(N)=O)NC(=O)[C@@H](N)C(C)C)[C@@H](C)CC)C(=O)N[C@@H](CCCN=C(N)N)C(=O)N[C@@H](Cc1ccc(O)cc1)C(=O)N[C@@H](CO)C(=O)O")
4.12
